assay: Cmax in BALB/c mouse at 2.5 mg/kg, iv measured upto 24 hrs by LC-MS/MS analysis; format: ADME, organism-based; design: time < 24 hrs, dose 2.5 mg/kg, route iv; details: in vivo
PROPERTY LABEL: Cmax (ng/mL)
Respond with the bare value in ng/mL.

q: Read off the recorded Cmax for `CCC(CC)N1CCN(C(=O)c2cc(Cn3c(=O)[n-]c(=O)c4ccccc43)ccc2F)CC1=O.[Na+]`
a: 2430

====

target: Protein mono-ADP-ribosyltransferase PARP6 (Homo sapiens, UniProt Q2NL67); experiment: Inhibition of human recombinant N-terminal GST-tagged PARP6 (1 to 630(end) residues) expressed in Sf9 cells
Sequence (Q2NL67 whole entry): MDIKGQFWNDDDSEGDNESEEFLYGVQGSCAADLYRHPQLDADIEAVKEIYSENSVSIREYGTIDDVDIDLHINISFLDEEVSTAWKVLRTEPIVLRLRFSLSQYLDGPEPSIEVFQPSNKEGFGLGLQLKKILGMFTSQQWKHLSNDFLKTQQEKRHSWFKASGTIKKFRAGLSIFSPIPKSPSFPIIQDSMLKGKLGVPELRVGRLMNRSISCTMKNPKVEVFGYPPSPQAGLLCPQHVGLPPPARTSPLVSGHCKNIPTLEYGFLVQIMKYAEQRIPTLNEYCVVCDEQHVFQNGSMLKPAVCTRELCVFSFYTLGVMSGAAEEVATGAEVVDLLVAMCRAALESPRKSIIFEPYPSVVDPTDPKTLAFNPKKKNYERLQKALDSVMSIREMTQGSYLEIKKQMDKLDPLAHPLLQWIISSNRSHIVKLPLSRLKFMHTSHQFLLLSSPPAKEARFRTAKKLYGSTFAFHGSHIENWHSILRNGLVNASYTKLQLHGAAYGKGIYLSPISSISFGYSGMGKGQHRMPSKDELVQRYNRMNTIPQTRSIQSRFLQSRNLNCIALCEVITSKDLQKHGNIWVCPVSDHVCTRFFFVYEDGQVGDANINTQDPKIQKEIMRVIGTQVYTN
pIC50: −log10 of the molar value.
PROPERTY LABEL: pIC50

q: Read off the recorded pIC50 for `CCC(CC)N1CCN(C(=O)c2cc(Cn3c(=O)[n-]c(=O)c4ccccc43)ccc2F)CC1=O.[Na+]`
a: ~6.55

====

experiment: MRT (0 to t) in BALB/c mouse at 2.5 mg/kg, iv measured upto 24 hrs by LC-MS/MS analysis; assay type: ADME, organism-based; details: in vivo
PROPERTY LABEL: MRT last at 24 h (min)
Respond with the bare value in min.

q: Read off the recorded MRT last at 24 h for `CCC(CC)N1CCN(C(=O)c2cc(Cn3c(=O)[n-]c(=O)c4ccccc43)ccc2F)CC1=O.[Na+]`
a: 7.8

====

Biological target: Protein mono-ADP-ribosyltransferase PARP8 (Homo sapiens)
Sequence (Q8N3A8 whole entry): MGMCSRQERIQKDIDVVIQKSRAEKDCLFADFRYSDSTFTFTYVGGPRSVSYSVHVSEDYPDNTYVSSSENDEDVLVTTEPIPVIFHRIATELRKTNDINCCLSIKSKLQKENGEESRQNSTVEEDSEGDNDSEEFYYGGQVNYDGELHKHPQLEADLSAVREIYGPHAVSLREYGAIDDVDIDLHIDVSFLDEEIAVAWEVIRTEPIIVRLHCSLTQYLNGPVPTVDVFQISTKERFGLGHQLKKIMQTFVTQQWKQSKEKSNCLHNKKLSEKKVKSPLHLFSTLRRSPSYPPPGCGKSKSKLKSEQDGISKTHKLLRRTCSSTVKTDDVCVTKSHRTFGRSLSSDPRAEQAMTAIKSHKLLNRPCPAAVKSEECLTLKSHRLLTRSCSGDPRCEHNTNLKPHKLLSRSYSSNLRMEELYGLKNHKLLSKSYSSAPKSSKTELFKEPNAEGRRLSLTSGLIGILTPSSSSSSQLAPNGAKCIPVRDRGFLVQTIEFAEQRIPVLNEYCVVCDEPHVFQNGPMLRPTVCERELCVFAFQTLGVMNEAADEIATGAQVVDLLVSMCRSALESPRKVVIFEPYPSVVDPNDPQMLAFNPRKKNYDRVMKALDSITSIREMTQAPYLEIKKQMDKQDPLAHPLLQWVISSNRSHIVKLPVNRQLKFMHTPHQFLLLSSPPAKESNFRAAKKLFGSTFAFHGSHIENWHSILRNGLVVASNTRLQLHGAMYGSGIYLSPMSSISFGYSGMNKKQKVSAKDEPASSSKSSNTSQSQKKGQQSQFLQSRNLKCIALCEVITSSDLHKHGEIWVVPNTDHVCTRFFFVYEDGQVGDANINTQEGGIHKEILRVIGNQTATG
PROPERTY LABEL: IC50

q: Read off the recorded IC50 for `CCC(CC)N1CCN(C(=O)c2cc(Cn3c(=O)[n-]c(=O)c4ccccc43)ccc2F)CC1=O.[Na+]`
a: 0.013 µM
